Recorded values, source ChEMBL document CHEMBL1154625.

Would you mind telling me the reported Cmax of each entry?
# METHOD NOTES: Cmax in Wistar rat at 10 mg/kg, po
# Type: ADME, organism-based
# Set-up: dose 10 mg/kg, route oral
# EXPERIMENTAL PARAMETERS: in vivo
Give bare numbers, in ng/mL.

# STRUCTURE AS SMILES, UNITS, Cmax
data = [
    ("Oc1cccc(-c2ccc(-c3ccc(O)c(F)c3)s2)c1", "ng/mL", 1390),
]

We now examine a further compound.
What does the data say about its Cmax? Entry: Cc1cc(-c2ccc(-c3cccc(O)c3)s2)ccc1O
905

* * *

# MEASUREMENT TARGET: 17-beta-hydroxysteroid dehydrogenase type 1 (Homo sapiens)
# Sequence (P14061 whole entry): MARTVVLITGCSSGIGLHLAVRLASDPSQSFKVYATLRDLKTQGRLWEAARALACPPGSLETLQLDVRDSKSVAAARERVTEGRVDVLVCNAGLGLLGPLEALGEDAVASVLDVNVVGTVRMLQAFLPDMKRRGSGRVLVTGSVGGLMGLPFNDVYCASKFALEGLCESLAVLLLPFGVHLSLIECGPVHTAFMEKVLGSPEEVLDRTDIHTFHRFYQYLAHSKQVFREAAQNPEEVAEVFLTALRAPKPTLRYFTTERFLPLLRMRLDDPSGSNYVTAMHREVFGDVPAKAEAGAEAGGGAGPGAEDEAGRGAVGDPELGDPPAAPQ
RECORDED ENDPOINT: pIC50
Numbers only, as −log10 of the molar value.

# STRUCTURE AS SMILES, pIC50
rows = [
    ("Oc1cc(-c2ccc(-c3ccc(O)c(F)c3)s2)ccc1F", 7.77),
    ("Oc1cccc(-c2cc(-c3ccccc3)c(-c3cccc(O)c3)s2)c1", 6.31),
    ("Cc1cc(-c2cccc(O)c2)sc1-c1cccc(O)c1", 6.25),
    ("Oc1cccc(-c2ccc(-c3cc(F)c(O)c(F)c3)s2)c1", 7.25),
    ("Cc1cc(-c2csc(-c3cccc(O)c3)c2)ccc1O", 7.19),
    ("O=C(CCc1cc(-c2ccc(-c3cccc(O)c3)s2)ccc1O)Nc1ccccc1", 6.21),
    ("Oc1cccc(-c2ccc(-c3ccc(F)c(F)c3)s2)c1", 6.11),
    ("Oc1ccc(-c2ccc(-c3cc(O)cc(F)c3)s2)cc1", 7.38),
]

Count: 2. Required value per item: pIC50.
1. Oc1cccc(-c2ccc(-c3ccc(F)c(O)c3)cc2)c1
2. Oc1cccc(-c2ccc(-c3ccc(O)c(C(F)(F)F)c3)s2)c1

1: 7.29; 2: 7.42
